Parameter: remaining activity. Scope: all listed entries.
tested on: Aerobactin synthetase IucA (Klebsiella pneumoniae, hypervirulent); test: IucA enzyme inhibition, biochemical, LOPAC library, absorbance readout (AID 1346212); settings: IucA enzyme assay, absorbance (OD) readout; active compounds read low;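 tested at 8 µM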;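 further: 100% = no compound wells and 0% = no enzyme wells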
Calls of active or inactive are those of the source. How the calls were made is not given here.
QUANTITY_MEASURED: remaining activity

>>> endpoint_result("CC(=O)C(C)=O")
"97% (inactive)"
>>> endpoint_result("CC(C)(C)NCC(O)c1ccccc1Cl (configuration not stated)")
"113% (inactive)"
>>> endpoint_result("Cc1cccc(C#Cc2ccccc2)n1")
"123% (inactive)"
>>> endpoint_result("COc1cc(C=C(C#N)C#N)cc(O)c1O")
"117% (inactive)"
>>> endpoint_result("CCCCCCCCc1ccc(-c2ccc(C(=O)O)cc2)cc1")
"124% (inactive)"
>>> endpoint_result("CN1Cc2c(N)cccc2C(c2ccccc2)C1 (configuration not stated)")
"109% (inactive)"
>>> endpoint_result("CC(C)[C@H]1c2ccc(F)cc2CC[C@@]1(CCN(C)CCCc1nc2ccccc2[nH]1)OC(=O)C1CC1")
"118% (inactive)"
>>> endpoint_result("Cn1ccc2cc3c(cc21)CCN3C(=O)Nc1cccnc1")
"102% (inactive)"
>>> endpoint_result("CCCCS(=N)(=O)CCC(N)C(=O)O (configuration not stated)")
"84.7% (inactive)"
>>> endpoint_result("CCCCCCCCCCCCCC(=O)O[C@@H]1[C@@H](C)[C@@]2(O)[C@@H](C=C(CO)C[C@]3(O)C(=O)C(C)=C[C@@H]23)[C@@H]2C(C)(C)[C@]12OC(C)=O")
"75.1% (inactive)"
>>> endpoint_result("NC(=NCCC[C@H](N)C(=O)O)NO")
"101% (inactive)"
>>> endpoint_result("NC(=O)CC[C@H](N)C(=O)O")
"110% (inactive)"

Sourced from PubChem BioAssay
